B1: Osa-1-4 twister ribozyme (parent)
chain: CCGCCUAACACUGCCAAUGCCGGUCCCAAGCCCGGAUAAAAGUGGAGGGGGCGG

Variants of: B1
Test: self-cleavage, relative activity (ratio to wild type); higher = more cleavage; co-transcriptional
measurement kind: self-cleavage
Would you mind answering with just the numeric figure?

The cases that follow already have their self-cleavage on record.
[[record]]
mutation_string = "C15A G45U"
measurement_kind = "self-cleavage"
measured_value = 0.04

[[record]]
mutation_string = "G22U G23U"
measurement_kind = "self-cleavage"
measured_value = 0.07

[[record]]
mutation_string = "A36G U37C"
measurement_kind = "self-cleavage"
measured_value = 1.04

[[record]]
mutation_string = "C31A G23C"
measurement_kind = "self-cleavage"
measured_value = 0.02

[[record]]
mutation_string = "G19A G50C"
measurement_kind = "self-cleavage"
measured_value = 0.27

[[record]]
mutation_string = "C9G G34A"
measurement_kind = "self-cleavage"
measured_value = 0.29


Prompt: Which self-cleavage is reported for this variant? C11A G54A
Completion: 0.62

Prompt: Next up: A41U C20A
Completion: 0.85

Prompt: Again, but for A46G U18G
Completion: 0.13

Prompt: Ok, now A41G C11A
Completion: 0.12

Prompt: Now the variant A46C C31U
Completion: 0.04

Prompt: # repeat for A39U G48A
Completion: 0.08

These entries and their values trace back to the RNAGym collection of RNA variant scans (doi:10.1002/anie.201605470).
